Target: integrin αvβ6 (Homo sapiens, UniProt P06756+P18564)
Assay: ELISA competition assay, integrin αvβ6 binding to LAP
Conditions: read-out: αvβ6 IC50; ELISA competition vs LAP; mean, n ≥ 3
parameter: pIC50
Note: pIC50 values are expressed as the negative base-10 logarithm of concentration in M.

Reported pIC50 ( COc1ccc([C@H](CC(=O)O)N2CCN(CCCc3ccc4c(n3)NCCC4)C2=O)cn1 [MK-0429, reference compound] ) = 8.89

---

Molecular target: integrin α5β1 (Homo sapiens, UniProt P05556+P08648)
Experiment: ELISA competition assay, integrin α5β1
Type: binding
Details: read-out: α5β1 IC50; ELISA competition
parameter: IC50 (nM)
Respond with the bare value in nM.

Reported IC50 ( COc1ccc([C@H](CC(=O)O)N2CCN(CCCc3ccc4c(n3)NCCC4)C2=O)cn1 [MK-0429, reference compound] ) = 18

---

Target: integrin αvβ8 (Homo sapiens, UniProt P06756+P26012)
Test: ELISA competition assay, integrin αvβ8 binding to LAP
Conditions: read-out: αvβ8 IC50; ELISA competition vs LAP; mean, n ≥ 3
parameter: pIC50
Note: pIC50 values are expressed as the negative base-10 logarithm of concentration in M.

Reported pIC50 ( COc1ccc([C@H](CC(=O)O)N2CCN(CCCc3ccc4c(n3)NCCC4)C2=O)cn1 [MK-0429, reference compound] ) = 9.15

Cited source for all entries: paper doi:10.1101/2025.01.28.635346v1
